Data origin, for the record: patent US9624215B2

tested on: normal human neonatal foreskin epidermal keratinocytes (NHEK-F); experiment: Cell proliferation inhibition test; assay type: cell-based; conditions: Keratinocyte, 72 h, NHEK-F cells, three days incubation, ATPlite or CellTiterGlo, read-out: IC50 (concentration of the compound at which the cell count is reduced by 50%)
Would you kindly list IC50 for each of these compounds?

• O=C(O)c1cc(C2CC2)cnc1Nc1ccc2c(ccn2Cc2cc(F)c(F)cc2F)c1 [Example 643] = ≤ 10 nM
• Cn1ccc2cc(Nc3ncc(C4CC4)cc3C(=O)O)cc(-c3ccccn3)c21 [Example 500] = 10 to 100 nM
• CCn1ccc2cc(Nc3ncc(C4CC4)cc3C(=O)O)cc(CCCOC)c21 [Example 598] = 10 to 100 nM

For each entry beneath this line, provide reported IC50.
1. CCCCn1ccc2cc(Nc3ncc(C4CC4)cc3C(=O)O)ccc21 [Example 637]
2. O=C(O)c1cc(Cl)ccc1Nc1ccc2c(ccn2-c2cscn2)c1 [Example 271]
3. Cn1cc(-c2ccccc2)c2ccc(Nc3ncc(C4CC4)cc3C(=O)O)cc21 [Example 41]

Result:
["10 to 100 nM", "10 to 100 nM", "10 to 100 nM"]

For each entry beneath this line, provide reported IC50.
1. Cc1ccccc1-c1cn(C)c2ccc(Nc3ncc(C4CC4)cc3C(=O)O)cc12 [Example 567]
2. O=C(O)c1cc(C2CC2)cnc1Nc1cccc2ccccc12 [Example 371]

Result:
10 to 100 nM
100 to 1000 nM

* * *

tested on: normal human neonatal foreskin epidermal keratinocytes (NHEK-F); experiment: Cell proliferation inhibition test; assay type: cell-based; conditions: Keratinocyte, 72 h, NHEK-F cells, three days incubation, ATPlite or CellTiterGlo, read-out: IC50 (concentration of the compound at which the cell count is reduced by 50%)
Would you kindly list IC50 for each of these compounds?

Look over these answered cases.
- O=C(O)c1cc(C2CC2)cnc1Nc1ccc2c(ccn2Cc2cccc(F)c2)c1 [Example 239]: ≤ 10 nM
- Cn1c(=O)n(-c2ccccc2)c2ccc(Nc3ccc(C4CC4)cc3C(=O)O)cc21 [Example 78]: 10 to 100 nM
- N#Cc1ccccc1Cn1ccc2cc(Nc3ncc(C4CC4)cc3C(=O)O)ccc21 [Example 452]: 10 to 100 nM

For each entry beneath this line, provide reported IC50.
1. COC/C=C/c1cc(Nc2ncc(C3CC3)cc2C(=O)O)cc2ccn(C)c12 [Example 467]
2. O=C(O)c1cc(C2CC2)ccc1Nc1ccc2c(ccn2C(=O)c2ccccc2)c1 [Example 202]

Result:
10 to 100 nM
≤ 10 nM

For each entry beneath this line, provide reported IC50.
1. CC(C)Cn1c(=O)sc2cc(Nc3ncc(C4CC4)cc3C(=O)O)ccc21 [Example 563]
2. O=C(O)c1cc(Cl)ccc1Nc1ccc2c(ccn2Cc2cccc(OCc3ccc4ccccc4n3)c2)c1 [Example 249]
3. O=C(O)c1cc(C2CC2)cnc1Nc1ccc2ccn(-c3ccccc3)c2c1 [Example 525]

Result:
1: 10 to 100 nM; 2: ≤ 10 nM; 3: ≤ 10 nM

For each entry beneath this line, provide reported IC50.
1. O=C(O)c1cc(C2CC2)cnc1Nc1ccc2c(ccn2Cc2ccc(C(F)(F)F)cc2)c1 [Example 451]
2. Cn1ccc2cc(Nc3ncc(C4CC4)cc3C(=O)O)cc(C3CC3)c21 [Example 409]

Result:
1: 10 to 100 nM; 2: 10 to 100 nM

For each entry beneath this line, provide reported IC50.
1. Cc1cnc(Nc2ccc3c(ccn3Cc3ccccc3)c2)c(C(=O)O)c1 [Example 125]
2. Cn1ccc2cc(Nc3ncc(C4CC4)cc3C(=O)O)cc(-c3ccccc3-c3ccccc3)c21 [Example 463]

Result:
10 to 100 nM
≤ 10 nM

* * *

system: normal human neonatal foreskin epidermal keratinocytes (NHEK-F); experiment: Cell proliferation inhibition test; format: cell-based; conditions: Keratinocyte, 72 h, NHEK-F cells, three days incubation, ATPlite or CellTiterGlo, read-out: IC50 (concentration of the compound at which the cell count is reduced by 50%)
pIC50: −log10 of the molar value.
endpoint: pIC50

* O=C(O)c1cc(Cl)ccc1Nc1ccc2c(ccn2Cc2cccnc2)c1 [Example 349] | 6.00 to 7.00

For each entry beneath this line, provide reported pIC50.
1. Cn1cc(C2CCCCC2)c2cc(Nc3ncc(C4CC4)cc3C(=O)O)ccc21 [Example 612]
2. O=C(O)c1cc(C2CC2)cnc1Nc1ccc2c(cnn2Cc2ccccc2)c1 [Example 395]
3. CC(C)n1ccc2cc(Nc3ncc(C4CC4)cc3C(=O)O)ccc21 [Example 123]
4. CCn1c(C(C)(C)C)cc2cc(Nc3ncc(C4CC4)cc3C(=O)O)ccc21 [Example 158]
5. O=C(O)c1cc(C2CC2)ccc1Nc1ccc2c(cnn2Cc2ccccc2)c1 [Example 29]

Result:
["7.00 to 8.00", "7.00 to 8.00", "7.00 to 8.00", "7.00 to 8.00", "≥ 8.00"]

For each entry beneath this line, provide reported pIC50.
1. O=C(O)c1cc(Cl)ccc1Nc1cccc2c1ccn2-c1ccccc1 [Example 275]
2. Cn1ccc2cc(Nc3ncc(C4CC4)cc3C(=O)O)cc(-c3ccncc3F)c21 [Example 589]
3. Cn1ccc2cc(Nc3ncc(C4CC4)cc3C(=O)O)cc(-c3ccc(C(F)(F)F)cc3)c21 [Example 481]

Result:
1: ≥ 8.00; 2: 7.00 to 8.00; 3: ≥ 8.00

* * *

tested on: normal human neonatal foreskin epidermal keratinocytes (NHEK-F); experiment: Cell proliferation inhibition test; format: cell-based; details: Keratinocyte, 72 h, NHEK-F cells, three days incubation, ATPlite or CellTiterGlo, read-out: IC50 (concentration of the compound at which the cell count is reduced by 50%)
endpoint: IC50

Look over these answered cases.
- Cc1cccc(-c2cn(C)c3ccc(Nc4ncc(C5CC5)cc4C(=O)O)cc23)c1: 0.1 to 1 µM
- O=C(O)c1cc(Cl)ccc1Nc1ccc2c(ccn2-c2ccccn2)c1: ≤ 0.01 µM

Now, please, on to the next molecule.
Q: What is its IC50 for normal human neonatal foreskin epidermal keratinocytes (NHEK-F)? Entry: O=C(O)c1cc(Cl)ccc1Nc1ccc2c(ccn2Cc2cccc(OCc3ccccn3)c2)c1
Result: ≤ 0.01 µM

* * *

Would you kindly list IC50 for each of these compounds?
system: normal human neonatal foreskin epidermal keratinocytes (NHEK-F); experiment: Cell proliferation inhibition test; type: cell-based; conditions: Keratinocyte, 72 h, NHEK-F cells, three days incubation, ATPlite or CellTiterGlo, read-out: IC50 (concentration of the compound at which the cell count is reduced by 50%)

Look over these answered cases.
* COc1ccc(-c2cc(Nc3ncc(C4CC4)cc3C(=O)O)cc3ccn(C)c23)cc1 [Example 487] | ≤ 10 nM
* CCC(CC)Cn1ccc2cc(Nc3ncc(C4CC4)cc3C(=O)O)ccc21 [Example 632] | ≤ 10 nM
* O=C(O)c1cc(C2CC2)cnc1Nc1ccc2c(ccn2Cc2ccccc2Cl)c1 [Example 459] | ≤ 10 nM
* O=C(O)c1cc(C2CC2)cnc1Nc1ccc2c(ccn2Cc2ccncc2)c1 [Example 148] | 100 to 1000 nM
* CCCn1ccc2cc(Nc3ncc(C4CC4)cc3C(=O)O)ccc21 [Example 636] | 10 to 100 nM
* Cn1cc(C2CCCC2)c2cc(Nc3ncc(C4CC4)cc3C(=O)O)ccc21 [Example 614] | 10 to 100 nM

For each entry beneath this line, provide reported IC50.
1. O=C(O)c1cc(C2CC2)cnc1Nc1ccc2c(cnn2CC2CCCCC2)c1 [Example 543]
2. O=C(O)c1cc(Cl)ccc1Nc1ccc2c(ccn2Cc2cccc(OCCO)c2)c1 [Example 300]
3. O=C(O)c1cc(C2CC2)cnc1Nc1c(F)cc2c(ccn2Cc2ccccc2)c1F [Example 554]
4. COCCN(C)c1cccc(Cn2ccc3cc(Nc4ncc(C5CC5)cc4C(=O)O)ccc32)c1 [Example 511]

Result:
≤ 10 nM
10 to 100 nM
≤ 10 nM
≤ 10 nM

For each entry beneath this line, provide reported IC50.
1. O=C(O)c1cc(C2CC2)cnc1Nc1ccc2c(c1)sc(=O)n2CC1CCCCC1 [Example 565]
2. COc1ccc(Cn2ccc3cc(Nc4ccc(Cl)cc4C(=O)O)ccc32)cc1 [Example 347]
3. COc1cccc(-c2cn(C)c3ccc(Nc4ncc(C5CC5)cc4C(=O)O)cc23)c1 [Example 577]
4. Cn1c(C(C)(C)C)cc2cc(Nc3ncc(C4CC4)cc3C(=O)O)ccc21 [Example 157]

Result:
1. ≤ 10 nM
2. 10 to 100 nM
3. 100 to 1000 nM
4. 100 to 1000 nM

For each entry beneath this line, provide reported IC50.
1. Cn1ccc2cc(Nc3ncc(C4CC4)cc3C(=O)O)cc(-c3cccc(OC(F)(F)F)c3)c21 [Example 492]
2. O=C(O)c1cc(C2CC2)cnc1Nc1ccc2c(ccn2Cc2cccc(C(F)(F)F)c2)c1 [Example 450]
3. O=C(O)c1cc(C2CC2)cnc1Nc1ccc2ncnc(-c3ccccc3)c2c1 [Example 533]
4. Cc1cccc(-c2cc(Nc3ncc(C4CC4)cc3C(=O)O)cc3ccn(C)c23)c1 [Example 477]

Result:
["≤ 10 nM", "≤ 10 nM", "100 to 1000 nM", "≤ 10 nM"]

For each entry beneath this line, provide reported IC50.
1. O=C(O)c1cc(C2CC2)cnc1Nc1ccc2c(c1)Cc1ccccc1-2 [Example 405]
2. Cn1ccc2cc(Nc3ncc(Cl)cc3C(=O)O)cc(-c3ccccc3)c21 [Example 625]
3. O=C(O)c1cc(C2CC2)cnc1Nc1ccc2c(ccn2Cc2ccc(F)c(F)c2)c1 [Example 635]
4. Cc1cccc(Cn2ccc3cc(Nc4ncc(C5CC5)cc4C(=O)O)ccc32)c1 [Example 456]
5. Cn1ccc2cc(Nc3ncc(C4CC4)cc3C(=O)O)cc(-c3ccccc3OC(F)(F)F)c21 [Example 491]
6. CCO/C=C/c1cc(Nc2ncc(C3CC3)cc2C(=O)O)cc2ccn(C)c12 [Example 604]

Result:
10 to 100 nM
10 to 100 nM
≤ 10 nM
≤ 10 nM
≤ 10 nM
10 to 100 nM
